// provenance: ChEMBL document CHEMBL1201862

Tested on: HCT-116
Measurement Protocol: NCI tumour cell line growth inhibition, 48 h
The source made the active and inactive calls. Rule as the data show it: active = GI50 up to about 1.1 µM and inactive = higher.
Outcome field: choose from 1 = active, 0 = inactive

Hi, do you know how CC1C(c2ccc(F)cc2)c2cc3c(cc2OC1N1CCCC1)OCO3 (stereo not drawn) came out in this test?
0

Hi, do you know how `C=C1Cc2cc(OC)c(OC)c(OC)c2-c2ccc(SC)c(=O)cc21` came out in this test?
1

Hi, do you know how CC1=CC(=O)NP(=O)(Oc2ccc(Cl)cc2)N1 (stereo not drawn) came out in this test?
0

Hi, do you know how `Cn1c(N)c(/C=N/NC(=O)CC#N)c(=O)n(C)c1=O` came out in this test?
0

Hi, do you know how Nc1nc(Cl)cc(NCC2(CO)CC(OCc3ccccc3)C2)n1 (stereo not drawn) came out in this test?
0

Hi, do you know how CC(C)(C)C1CCC2c3c([nH]c4ccccc34)C3C(=O)N(c4cc(Cl)ccc4Cl)C(=O)C3C2C1 (stereo not drawn) came out in this test?
0

Hi, do you know how `c1ccc(CNc2nncc3[nH]cnc23)cc1` came out in this test?
0

Hi, do you know how `COc1cc2c(cc1OC)[C@]1(O)C(=O)c3ccc4c(c3O[C@@H]1CO2)C[C@H](C(C)(C)O)O4` came out in this test?
0

Hi, do you know how `Cc1nn(-c2ccccc2)c2nc3c(c(C)nn3-c3ccccc3)c(-c3ccccc3Br)c12` came out in this test?
0

Hi, do you know how CN1OC(CO)CC12C1CC3CC(C1)CC2C3 (stereo not drawn) came out in this test?
0

Hi, do you know how `Br/C(=N\N=c1/nn[nH][nH]1)c1ccncc1` came out in this test?
0
